Quick reference: phosphorylation enrichment of the listed items.
# TARGET UNDER TEST: FGFR1 (UniProt P11362)
# Sequence (P11362 whole entry, looked up): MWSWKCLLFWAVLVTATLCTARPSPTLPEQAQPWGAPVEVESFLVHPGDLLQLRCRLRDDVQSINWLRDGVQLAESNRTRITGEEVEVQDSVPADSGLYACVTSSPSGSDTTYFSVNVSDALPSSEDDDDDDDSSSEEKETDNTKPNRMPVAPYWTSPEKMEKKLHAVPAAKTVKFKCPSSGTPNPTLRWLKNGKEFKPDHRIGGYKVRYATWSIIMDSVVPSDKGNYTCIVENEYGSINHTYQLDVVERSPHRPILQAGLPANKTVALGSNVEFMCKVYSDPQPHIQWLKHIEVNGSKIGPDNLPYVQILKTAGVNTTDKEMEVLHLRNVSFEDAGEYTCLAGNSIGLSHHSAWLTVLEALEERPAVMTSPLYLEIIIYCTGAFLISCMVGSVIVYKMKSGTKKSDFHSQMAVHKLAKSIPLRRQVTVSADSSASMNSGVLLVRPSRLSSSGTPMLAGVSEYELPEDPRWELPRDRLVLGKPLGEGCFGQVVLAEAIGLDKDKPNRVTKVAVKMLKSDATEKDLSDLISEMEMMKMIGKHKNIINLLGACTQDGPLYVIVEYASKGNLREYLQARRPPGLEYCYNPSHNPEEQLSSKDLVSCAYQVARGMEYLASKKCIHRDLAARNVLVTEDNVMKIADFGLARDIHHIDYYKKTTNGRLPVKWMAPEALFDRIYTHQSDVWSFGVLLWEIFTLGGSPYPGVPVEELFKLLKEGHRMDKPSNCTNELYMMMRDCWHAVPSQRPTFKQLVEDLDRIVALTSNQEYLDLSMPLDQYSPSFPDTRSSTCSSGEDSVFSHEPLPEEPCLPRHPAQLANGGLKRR
# ASSAY COMMENT: phosphorylation enrichment, bacterial display (enrichment ratio); higher = better substrate or ligand; peptides without Tyr show the background;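 also: 11-residue human phosphosite peptides and single-mutation variants displayed on the E. coli surface, counted by deep sequencing, each peptide's frequency after selection divided by its frequency in the unselected input library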;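 also: frequency after pTyr selection over input frequency; kinase dosed for 20-30% of maximal phosphorylation in three min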
QUANTITY MEASURED: phosphorylation enrichment

[[record]]
monomer_sequence = "TVHPGYGFLSE [PCCA_Y143_A138T]"
readout_value = 0.393

[[record]]
monomer_sequence = "CEAMEYPESKQ [BTK_Y511_L512P]"
readout_value = 0.571

[[record]]
monomer_sequence = "FPPDGYSRHCE [CTNND1_Y213_Y217C_YF]"
readout_value = 0.477

[[record]]
monomer_sequence = "ISNATYKQIGL [FLT1_Y199_E201Q]"
readout_value = 0.378

[[record]]
monomer_sequence = "SRIWVYNHYRC [BRCA2_Y2621_W2626C]"
readout_value = 0.51

[[record]]
monomer_sequence = "RPIEVYLCPEE [E2F3_Y349_G344R]"
readout_value = 1.11

[[record]]
monomer_sequence = "DLEKTYNTFRS [B4GALNT2_Y538_A533D_YF]"
readout_value = 0.431

[[record]]
monomer_sequence = "STFVPCEIKVQ [L1CAM_Y784_Y784C]"
readout_value = 0.579

[[record]]
monomer_sequence = "FFRKVYHLASV [RBL1_Y796_YF]"
readout_value = 0.46

[[record]]
monomer_sequence = "RSSNTYTLTDV [ALCAM_Y298]"
readout_value = 0.519

[[record]]
monomer_sequence = "YDGGCYEQLFV [MC4R_Y41_S36Y]"
readout_value = 1.18

[[record]]
monomer_sequence = "FSQQTYYPVSN [ABCD1_Y180_R182P]"
readout_value = 9.03

[[record]]
monomer_sequence = "FHLGKYLQEVL [KLB_Y910_Y906H_YF]"
readout_value = 0.415

[[record]]
monomer_sequence = "RVLHNYLVWCV [ECEL1_Y400_R404C]"
readout_value = 0.773

[[record]]
monomer_sequence = "IWDLKYTIENP [SND1_Y178_R174W]"
readout_value = 0.497

[[record]]
monomer_sequence = "NTGDFCDLFGG [PTPN11_Y63_Y63C_YF]"
readout_value = 0.511

[[record]]
monomer_sequence = "EIVFVYVKKRS [DNAI2_Y7_YF]"
readout_value = 0.498

[[record]]
monomer_sequence = "CDLTDYLMKIL [ACTA1_Y190_R185C]"
readout_value = 0.476

[[record]]
monomer_sequence = "TLKDVCDDGKY [RPS6KA3_Y483_Y483C]"
readout_value = 0.53

[[record]]
monomer_sequence = "LAARFYNWVCF [FLT4_Y1231_S1235C_YF]"
readout_value = 1.65

[[record]]
monomer_sequence = "LGNFNYEQRGA [API5_Y497]"
readout_value = 0.569

[[record]]
monomer_sequence = "INQGPYENRSV [ATP6V1B1_Y462]"
readout_value = 0.421

[[record]]
monomer_sequence = "EEEPVYKAEPE [HCLS1_Y360_E361K]"
readout_value = 0.597

[[record]]
monomer_sequence = "LPEHPYHSRPR [NDUFA8_Y142_N140H]"
readout_value = 1.02

[[record]]
monomer_sequence = "ACVARYIFKRL [LPCAT3_Y348_W344C]"
readout_value = 0.502

[[record]]
monomer_sequence = "LLVVLCKFRCF [PSEN1_Y154_Y154C_YF]"
readout_value = 0.648

[[record]]
monomer_sequence = "KMATAYIRSMS [BCO1_Y264_R267S]"
readout_value = 0.397

[[record]]
monomer_sequence = "CTTILYNFMCN [TP53_Y234_H233L_YF]"
readout_value = 0.601


Cited source for all entries: the supplement of paper PMC10065799
